- Assay system: Pro-neuregulin-1, membrane-bound isoform (Homo sapiens) (UniProt Q02297)
- Sequence (Q02297 whole entry, looked up, canonical isoform): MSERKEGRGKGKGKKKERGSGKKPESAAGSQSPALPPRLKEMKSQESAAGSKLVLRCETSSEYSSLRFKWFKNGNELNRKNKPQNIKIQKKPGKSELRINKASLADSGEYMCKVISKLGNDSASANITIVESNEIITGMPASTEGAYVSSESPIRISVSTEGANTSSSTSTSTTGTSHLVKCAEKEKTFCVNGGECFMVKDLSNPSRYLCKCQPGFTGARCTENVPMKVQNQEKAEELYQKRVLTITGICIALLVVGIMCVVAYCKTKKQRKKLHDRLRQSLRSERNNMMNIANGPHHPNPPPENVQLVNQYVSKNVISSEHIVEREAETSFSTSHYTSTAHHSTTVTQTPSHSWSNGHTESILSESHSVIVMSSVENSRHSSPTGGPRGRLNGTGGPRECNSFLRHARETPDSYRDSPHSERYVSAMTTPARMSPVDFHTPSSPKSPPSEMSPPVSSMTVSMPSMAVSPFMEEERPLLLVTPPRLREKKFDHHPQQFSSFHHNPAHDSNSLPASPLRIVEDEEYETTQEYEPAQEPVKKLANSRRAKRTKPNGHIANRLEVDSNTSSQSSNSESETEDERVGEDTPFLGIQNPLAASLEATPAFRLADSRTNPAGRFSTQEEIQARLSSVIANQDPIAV
- Method description: small molecules binding neuregulin-1 protein – biochemical, small-molecule microarray, fluorescence 635/667, psychiatric disease protein project, primary screen (AID 1075);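 also: score combines 667 nm spot fluorescence with signal to noise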
- Assay setup: NRG1 binding, 635 nm fluorescence, higher = more signal
Measured quantity: composite z-score

Notebook entry, Pro-neuregulin-1, membrane-bound isoform (Homo sapiens) (UniProt Q02297) assay: composite z-score of CCOC(=O)C1=CC[C@@H](c2ccc(OC)cc2)N(S(=O)(=O)c2ccc(C)cc2)[C@H]1c1ccc(C)cc1 = ? 0.46

Notebook entry, Pro-neuregulin-1, membrane-bound isoform (Homo sapiens) (UniProt Q02297) assay: composite z-score of COc1ccc(C(O)C2C=CC3C(=O)N(C)C(=O)C3N2N(c2ccccc2)c2ccccc2)cc1 (stereo not drawn) = ? 0.941

Notebook entry, Pro-neuregulin-1, membrane-bound isoform (Homo sapiens) (UniProt Q02297) assay: composite z-score of O=C(NCCN1CCOCC1)[C@@H]1c2ccccc2C(=O)N(Cc2ccccc2C(F)(F)F)[C@H]1c1ccc(CO)cc1 = ? 0.875

Notebook entry, Pro-neuregulin-1, membrane-bound isoform (Homo sapiens) (UniProt Q02297) assay: composite z-score of O=C1C2C=CC(C(O)C3CCCCC3)N(n3cnnc3)C2C(=O)N1Cc1ccccc1 (stereo not drawn) = ? 1.07

Notebook entry, Pro-neuregulin-1, membrane-bound isoform (Homo sapiens) (UniProt Q02297) assay: composite z-score of COC(=O)C[C@H]1O[C@@]2(C[C@@H]1[Si](C)(C)C)C(=O)N(C)c1ccccc12 = ? 0.22

Notebook entry, Pro-neuregulin-1, membrane-bound isoform (Homo sapiens) (UniProt Q02297) assay: composite z-score of CCOC(=O)C1=C[C@@H](C(C)(C)C)N(S(=O)(=O)c2ccc(C)cc2)[C@H]1c1ccc(C#N)cc1 = ? 1.32

Notebook entry, Pro-neuregulin-1, membrane-bound isoform (Homo sapiens) (UniProt Q02297) assay: composite z-score of O=C(NCCN1CCOCC1)[C@@H]1c2ccccc2C(=O)N(Cc2ccc(OC(F)(F)F)cc2)[C@H]1c1ccc(CO)cc1 = ? -0.181

Notebook entry, Pro-neuregulin-1, membrane-bound isoform (Homo sapiens) (UniProt Q02297) assay: composite z-score of O=C1C[C@]2(c3ccc([N+](=O)[O-])cc3)C(=O)N(C3CC3)c3cc(CO)ccc3[C@H]2N1C1CCCCC1 = ? -0.123

Reference source for all entries: PubChem BioAssay
